Where do the numbers come from? From a melting point compilation (Tetko et al.; mined from patent text by program, amines drawn as free bases though some values may be those of a salt).

Each item that follows carries a reported melting point.

{"Molecule": "CC1CC(=O)C(C(=O)c2ccc(S(C)(=O)=O)cc2[N+](=O)[O-])C(=O)C1(C)C (stereo not drawn)", "melting point": "166 to 167 °C"}
{"Molecule": "CCCCc1nn(-c2cc(NC(=O)CC)ccc2Cl)c(=O)n1Cc1ccc(-c2ccccc2S(=O)(=O)NC(=O)c2cc(Cl)ccc2Cl)cc1F", "melting point": "169 to 172 °C"}
{"Molecule": "O=C1c2cc(Cl)c(Cl)cc2C(=O)N1CCCl", "melting point": "144 to 145 °C"}
{"Molecule": "CC(=O)N1CCC[C@H]1C(=O)Nc1ccc(S(N)(=O)=O)cc1", "melting point": "283 to 285 °C"}
{"Molecule": "O=C1c2ccccc2C(=O)N1CC(=O)N1c2ccc(F)cc2N(Cc2ccccc2)C(=O)C2CCC[C@H]21 (single isomer, unassigned)", "melting point": "266 to 268 °C"}
{"Molecule": "Fc1cc(F)c(F)c(N=C2NCCN2)c1F", "melting point": "147 to 148 °C"}
{"Molecule": "Cc1cccc(NC(=O)NC2CN(C(=O)C(C)(C)C)c3ccccc3N(CC(C)C)C2=O)c1 (stereo not drawn)", "melting point": "152 °C"}
{"Molecule": "CN1CCN(c2ccc(N/C=C3\\C(=O)NC(=O)c4ccc(C(=O)N(C)C)cc43)cc2)CC1", "melting point": "> 300 °C"}
